Assay: Partition coefficient (logP) (cyclohexane)
Assay type: physicochemical
Details: cyclohexane/water
assay_readout: logP

INSERT INTO assay_data (molecule, observed_result) VALUES
  ('CCCCCN(CCCCC)CC(=O)NCc1ccccc1.Cl', 5.259),
  ('Cl.O=C(CN1CCOCC1)NCc1ccccc1', -1.132),
  ('CCCN(CCC)CC(=O)NC1CCc2ccccc21.Cl (centres undefined)', 3.277),
  ('CCCCN(CCCC)CC(=O)NCc1ccccc1.Cl', 3.791),
  ('CCN(CC)CC(=O)NC1c2ccccc2CCc2ccccc21.Cl', 4.153),
  ('Cl.O=C(CN1CCCCC1)NCc1ccccc1', 1.198),
  ('CCN(CC)CC(=O)NCc1ccccc1-c1ccccc1.Cl', 3.2),
  ('CCCN(CCC)CC(=O)NCc1ccccc1.Cl', 2.386),
  ('CCN(CC)CC(=O)NCc1ccccc1.Cl', 1.02);
